Cited source for all entries: patent US20150376269A1

Exercise: state measured pKd for each of the binders provided.
Tgt: T1, serum resistance-associated protein (SRA) from Trypanosoma brucei rhodesiense, recombinant SRA (SEQ ID NO: … (Trypanosoma brucei rhodesiense, UniProt O96637 31-274))
T1 construct: also called SRA protein
T1 sequence: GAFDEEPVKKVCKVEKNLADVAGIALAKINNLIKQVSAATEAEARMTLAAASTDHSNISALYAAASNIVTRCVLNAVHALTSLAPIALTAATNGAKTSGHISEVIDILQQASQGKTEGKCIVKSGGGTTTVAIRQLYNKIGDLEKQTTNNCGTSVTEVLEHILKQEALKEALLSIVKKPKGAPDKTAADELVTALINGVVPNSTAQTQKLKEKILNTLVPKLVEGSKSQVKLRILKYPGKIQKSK
Assay text: SPR, mAb captured, 25C, pH 7.4
pKd: −log10 of the molar value.

Qu. Can you look up the measured pKd of H1H10031P (antibody, V domains shown, Fully human antibody with human IgG1 Fc (prefix H1H)) VH: EVQLVESGGNVVRPGGSLRLSCSGSGFAFENYGMSWVRQGPGKGLEWVSNINWNGGSLNYVDSVKGRFTISRDNAKNSLYLQMNSLRAEDTALYYCARVIVYGMDVWGQGTTVTVSS VL: DIQMTQSPSSLSASVGDRVTITCRASQGIRNGLGWFQQKPGKAPKRLIYATSSLQSGVPSRFSGSGSGTEFTLTISSLQPEDFATYYCLQSNSYPWTFGQGTKVEIK for me?
Ans. ≥ 10.02

Qu. Can you look up the measured pKd of H1H10041P (antibody, V domains shown, Fully human antibody with human IgG1 Fc (prefix H1H)) VH: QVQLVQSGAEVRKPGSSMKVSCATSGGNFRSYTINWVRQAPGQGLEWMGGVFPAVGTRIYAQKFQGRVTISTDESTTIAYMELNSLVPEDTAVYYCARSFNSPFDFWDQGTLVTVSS VL: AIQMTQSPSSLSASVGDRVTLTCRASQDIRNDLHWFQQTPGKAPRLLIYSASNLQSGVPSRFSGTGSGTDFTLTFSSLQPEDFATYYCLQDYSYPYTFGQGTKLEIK for me?
Ans. ≥ 10.56
